Target: T1, Biotinylated human soluble TWEAK (amino acids 99-249 of SEQ ID NO: 68) (human, UniProt O43508 99-249, biotinylated)
T1 construct: also called Human TWEAK
T1 sequence: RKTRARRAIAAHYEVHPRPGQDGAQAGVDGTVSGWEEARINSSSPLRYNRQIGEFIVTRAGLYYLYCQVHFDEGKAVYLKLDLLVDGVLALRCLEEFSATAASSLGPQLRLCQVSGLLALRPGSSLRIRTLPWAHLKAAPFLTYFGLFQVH
Assay: SPR (Biacore), biotinylated soluble TWEAK on streptavidin chip, 37 C
Provide the recorded Biacore t/2 diss. [min] 37° C. human for the entries that follow.
Please give a number only; it is taken to be in min.

Name the recorded Biacore t/2 diss. [min] 37° C. human of the item Humanized <TWEAK> 305- antibody 34 (antibody, V domains shown) VH: EVQLLESGGGLVQPGGSLRLSCAASGFDFSTYYMSWVRQAPGKGLEWVSTVYVRQGTTYYASWLNGRFTISRDNSKNTLYLQMNSLRAEDTAVYYCAKGGYNYDDAFVIWGQGTLVTVSS VL: AIRMTQSPSSFSASTGDRVTITCQASQNIYSNLAWYQQKPGKAPKLLIYTASYLASGVPSRFSGSGSGTDYTLTISCLQSEDFATYYCQTAYYNSRPDTVAFGGGTKVEIK in your answer.
185

Consider the binder Humanized <TWEAK> 305- antibody 33 (antibody, V domains shown) VH: QVQLVQSGAEVKKPGSSVKVSCKASGFDFSTYYMSWVRQAPGQGLEWMGTVYVRQGTTYYASWLNGRVTITADESTSTAYMELSSLRSEDTAVYYCARGGYNYDDAFVIWGQGTLVTVSS VL: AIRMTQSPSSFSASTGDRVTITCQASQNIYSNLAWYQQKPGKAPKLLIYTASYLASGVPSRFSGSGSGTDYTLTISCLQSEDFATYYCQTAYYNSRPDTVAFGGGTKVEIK . State its measured Biacore t/2 diss. [min] 37° C. human.
99

Determine from records and report Biacore t/2 diss. [min] 37° C. human for Humanized <TWEAK> 305- antibody 30 (antibody, V domains shown) VH: EVQLLESGGGLVQPGGSLRLSCAASGFDFSTYYMSWVRQAPGKGLEWVSTVYVRQGTTYYASWLNGRFTISRDNSKNTLYLQMNSLTAEDTAVYYCAKGGYNYDDAFVIWGQGTLVTVSS VL: DIQMTQSPSSVSASVGDRVTITCQASQNIYSNLAWYQQKPGKAPKLLIYTASYLASGVPSRFSGSGSGTDFTLTISSLQPEDFATYYCQTAYYNSRPDTVAFGGGTKVEIK
45
